Molecular target: human GPR131 (Homo sapiens)
Construct: expressed in transfected cells
Sequence (Q8TDU6 1-330): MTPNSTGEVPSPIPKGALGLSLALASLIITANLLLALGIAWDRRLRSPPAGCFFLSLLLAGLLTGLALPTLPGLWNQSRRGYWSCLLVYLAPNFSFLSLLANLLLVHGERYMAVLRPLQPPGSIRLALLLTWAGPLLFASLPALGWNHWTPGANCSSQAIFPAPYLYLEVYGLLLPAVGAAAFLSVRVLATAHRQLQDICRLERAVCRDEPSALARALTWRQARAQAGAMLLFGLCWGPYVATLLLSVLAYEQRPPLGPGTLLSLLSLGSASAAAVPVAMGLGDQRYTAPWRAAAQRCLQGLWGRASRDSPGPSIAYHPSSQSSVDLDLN
Experiment: Stimulation of cAMP in stable cell line expressing human GPR131 (FRET cAMP kit)
Assay type: cell-based
Settings: 0.5 h; 1.1 μM compound, relative to maximal stimulatory activity of lithocholic acid at 3.3 μM; 30 minutes at 37° C.; read-out: Percent Activity @ 1.1 μM (of 3.3 uM LCA) (%)
Below: a set of entries, each annotated with reported activation at 1.1 µM.
Could you give me the number in %? Just the number is fine.

input_smiles	quantity_measured	readout_number
CN(Cc1ccncc1)C(=O)c1cnc(SCc2cc(F)ccc2F)n1-c1ccc(F)cc1	activation at 1.1 µM	99

Continue with the next molecule.
### Prompt I'd like to know its activation at 1.1 µM. The molecule in question is Cc1nn(C)cc1CN(C)C(=O)c1cnc(SCc2ccn(C)n2)n1-c1ccc(F)cc1
### Response 93
